Values were extracted from paper PMC8158254.

# tested_on: NgCA (Neisseria gonorrhoeae, UniProt Q50940)
# Construct: gene cah
# method_description: biochemical
# assay_setup: read-out: NgCA
pKi: −log10 of the molar value.
endpoint: pKi

1. N#CO
3.37
2. S=C(S)S
4.06
3. O=S(=O)(O)OOS(=O)(=O)O
3.10
4. O=S(O)O
3.18
5. NS(=O)(=O)O
4.62
6. Br
2.40
7. CCN(CC)C(=S)S
5.29

----------
# tested_on: NgCA (Neisseria gonorrhoeae, UniProt Q50940)
# Construct: gene cah
# Sequence (Q50940 27-252): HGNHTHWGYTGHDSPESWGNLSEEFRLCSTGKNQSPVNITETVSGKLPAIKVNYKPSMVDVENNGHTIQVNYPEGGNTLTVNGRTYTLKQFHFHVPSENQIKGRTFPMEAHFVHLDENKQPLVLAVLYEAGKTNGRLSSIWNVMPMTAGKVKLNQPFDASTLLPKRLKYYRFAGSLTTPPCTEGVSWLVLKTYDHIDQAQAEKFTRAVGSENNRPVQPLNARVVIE
# method_description: biochemical
# assay_setup: read-out: NgCA
endpoint: Ki (µM)

1) Cl
4800
2) O=S(=O)(O)F
610
3) S
550
4) NS(N)(=O)=O
58
5) F
8300
6) O=[Se](=O)(O)O
870
7) [O]=[Ru](=[O])(=[O])[OH]
1900
8) O=NO
590
9) O=S(=O)(O)NS(=O)(=O)O [NH(SO3)2^2-]
250
10) OB(O)c1ccccc1
150
11) O=S(=O)(O)C(F)(F)F
5700
12) [O]=[Re](=[O])(=[O])[OH]
960
13) [O]=[V]([OH])([OH])[O][V](=[O])([OH])[OH]
2800
14) N#C[SeH]
660
15) O=[Te](=O)(O)O
760
16) O=[N+]([O-])O
850

----------
# tested_on: NgCA (Neisseria gonorrhoeae, UniProt Q50940)
# Construct: gene cah
# method_description: biochemical
pKi: −log10 of the molar value.
endpoint: pKi

1) O=S(=O)(O)O [SO4^2-]
3.08
2) N#CS [NCS^−]
3.04
3) O=P(O)(O)OP(=O)(O)O [P2O7^2-]
2.31
4) I [I^−]
2.02
